These measurements were taken from paper PMC9502272.

We begin with a simple list: items and their reported Mean value WT.
Molecular target: Oatp1b2 (Mus musculus, UniProt Q9JJL3)
Sequence (Q9JJL3 whole entry): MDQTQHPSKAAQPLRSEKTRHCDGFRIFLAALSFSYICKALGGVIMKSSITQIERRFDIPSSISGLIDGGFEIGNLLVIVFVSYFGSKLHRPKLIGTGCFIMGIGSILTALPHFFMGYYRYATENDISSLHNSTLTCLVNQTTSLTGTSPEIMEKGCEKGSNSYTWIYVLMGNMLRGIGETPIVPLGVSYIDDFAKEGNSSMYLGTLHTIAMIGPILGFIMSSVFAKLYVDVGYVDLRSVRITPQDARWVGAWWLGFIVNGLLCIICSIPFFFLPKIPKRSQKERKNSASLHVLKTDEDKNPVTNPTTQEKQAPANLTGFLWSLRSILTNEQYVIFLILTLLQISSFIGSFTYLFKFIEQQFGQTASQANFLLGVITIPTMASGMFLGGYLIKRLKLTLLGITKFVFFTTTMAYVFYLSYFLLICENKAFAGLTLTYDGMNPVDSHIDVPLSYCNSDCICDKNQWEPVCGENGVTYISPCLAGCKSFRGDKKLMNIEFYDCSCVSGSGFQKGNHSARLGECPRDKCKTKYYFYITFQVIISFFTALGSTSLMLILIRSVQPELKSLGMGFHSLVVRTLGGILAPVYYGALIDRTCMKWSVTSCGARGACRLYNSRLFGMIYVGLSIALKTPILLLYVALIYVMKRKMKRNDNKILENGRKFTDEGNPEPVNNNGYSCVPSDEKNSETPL
Test: Untargeted metabolomics of plasma from untreated wild-type and Oatp1b2(−/−) mice
Conditions: plasma of untreated wild-type mice; raw area counts rescaled to median = 1
Readout: Mean value WT

Compound: Cc1cn([C@H]2C[C@H](O)[C@@H](CO)O2)c(=O)nc1N [5-methyl-2'-deoxycytidine]
Tested target: Oatp1b2 (Mus musculus, UniProt Q9JJL3)
Value: .852
//
Compound: CCCCC/C=C\C/C=C\CCCCCCCC(=O)O[C@H](CC(=O)[O-])C[N+](C)(C)C [linoleoylcarnitine (C18:2)]
Tested target: Oatp1b2 (Mus musculus, UniProt Q9JJL3)
Value: .838
//
Compound: CCCCCCCC/C=C\CCCCCCCC(=O)OC[C@@H](O)COP(=O)(O)OCCN [1-oleoyl-GPE (18:1)]
Tested target: Oatp1b2 (Mus musculus, UniProt Q9JJL3)
Value: .634
//
Compound: C=CC1=C(C)/C(=C/c2[nH]c(Cc3[nH]c(/C=C4\NC(=O)C(C)=C4C=C)c(C)c3CCC(=O)O)c(CCC(=O)O)c2C)NC1=O [bilirubin (E,E)]
Tested target: Oatp1b2 (Mus musculus, UniProt Q9JJL3)
Value: .191
//
Compound: CC/C=C\C/C=C\C/C=C\CCCCCCCC(=O)O[C@H](COC(=O)CCCCCCC/C=C\CCCCCC)COP(=O)([O-])OCC[N+](C)(C)C
Tested target: Oatp1b2 (Mus musculus, UniProt Q9JJL3)
Value: .784
//
Compound: CCCCC/C=C\C/C=C\CCCCCCCC(N)=O [linoleamide (18:2n6)]
Tested target: Oatp1b2 (Mus musculus, UniProt Q9JJL3)
Value: .945
//
Compound: C[C@H](CCC(=O)NCCS(=O)(=O)O)[C@H]1CC[C@H]2[C@@H]3CC[C@@H]4C[C@H](O)CC[C@]4(C)[C@H]3C[C@H](O)[C@]12C [taurodeoxycholate]
Tested target: Oatp1b2 (Mus musculus, UniProt Q9JJL3)
Value: .528

---

Molecular target: Oatp1b2 (Mus musculus, UniProt Q9JJL3)
Test: Untargeted metabolomics of plasma from untreated wild-type and Oatp1b2(−/−) mice
Settings: plasma of untreated Oatp1b2-deficient (KO) vs wild-type (WT) mice; semi-quantitative; positive = higher in KO; n = 6 per group

Compound: CCCCCCCCCCCCCCCCCC(N)=O [stearamide (18:0)]
Fold of Change KO/WT: 1.49
//
Compound: OC[C@@H](O)[C@@H](O)CO
Fold of Change KO/WT: 1.31
//
Compound: CCCCC/C=C\C/C=C\C/C=C\C/C=C\CCCC(=O)O[C@H](COC(=O)CCCCCCC/C=C\C/C=C\CCCCC)COP(=O)([O-])OCC[N+](C)(C)C
Fold of Change KO/WT: 1.36
//
Compound: Cc1ncc(CO)c(C=O)c1O
Fold of Change KO/WT: 1.47
//
Compound: CCCCC/C=C\C/C=C\CCCCCCCC(=O)O[C@H](CO/C=C\CCCCCCCCCCCCCC)COP(=O)(O)OCCN
Fold of Change KO/WT: 1.34
//
Compound: C[C@H](CCC(=O)O)[C@H]1CC[C@H]2[C@@H]3C[C@H](O)[C@@H]4C[C@@H](O)CC[C@]4(C)[C@H]3CC[C@]12C [isohyodeoxycholate]
Fold of Change KO/WT: 2.46
//
Compound: CC(C)C(=O)O[C@H](CC(=O)[O-])C[N+](C)(C)C
Fold of Change KO/WT: 1.40
//
Compound: O=C(O)CCCCCCCCCCC(=O)O [dodecanedioate (C12-DC)]
Fold of Change KO/WT: 8.12
//
Compound: CCCCC/C=C\C/C=C\C/C=C\C/C=C\CCCC(=O)OC[C@@H](O)COP(=O)(O)O
Fold of Change KO/WT: 1.80
